Test system: UACC-257 melanoma
Experiment: NCI-60 one-dose screen, 48 h (100 = growth as untreated, 0 = no growth, -100 = all killed)
Conditions: 10 µM unless noted
Compounds without any hit were thinned out: in the full panel of roughly 83,000, 20% have a hit.
measurementLabel: growth (%)
Numbers only, in %.

Past entries and their recorded results:
compound	systemName	measurementLabel	measuredNumber
Cc1cc(-c2ccccc2)on1	UACC-257 melanoma	growth	109
Oc1ccccc1-c1nnc(COc2ccc(Cl)cc2Cl)o1	UACC-257 melanoma	growth	58.9
CC(C)(C)[Si](C)(C)OC1[C@@H](O[Si](C)(C)C(C)(C)C)[C@@H](CNC(=O)NC(=O)NC(=O)CI)O[C@H]1n1cnc2c(NC(=O)Nc3ccccc3)ncnc21 (stereo partly drawn)	UACC-257 melanoma	growth	105
COc1ccc(Cl)cc1Nc1nc(C(F)(F)F)ccc1C(=O)NN	UACC-257 melanoma	growth	28.3
COc1ccc(C(=O)O)cc1.[Ag]	UACC-257 melanoma	growth	94.9
CC(=O)CC(c1ccc([N+](=O)[O-])cc1)c1c(O)c2ccccc2oc1=O (stereo not drawn)	UACC-257 melanoma	growth	120
CN(C)N1C(=O)c2c(Cl)c(Cl)c(Cl)c(Cl)c2C1=O	UACC-257 melanoma	growth	104
O=[N+]([O-])c1ccc(N/N=C/c2ccccc2O)nc1	UACC-257 melanoma	growth	32

For each entry beneath this line, provide reported growth.
1. COc1ccc(C2NC(=O)c3cc4c(cc3N2)OCO4)cc1 (stereo not drawn)
2. O=C(N/N=C/c1ccc([N+](=O)[O-])cc1)c1ccccc1Nc1ccnc(C(F)(F)F)c1
3. COc1ccc(NC(=O)Cn2c(=O)sc3c(-c4ccc(Cl)cc4)cc(-c4ccc(Cl)cc4)nc32)cc1
4. CCOC(=O)c1ccc2c(c1)nc(-c1ccc(Cl)cc1)n2-c1cc(C(C)(C)C)[nH]n1
5. CS(=O)(=O)c1ccc(Cl)c([N+](=O)[O-])c1
6. c1ccc2oc(-c3cnc4nonc4n3)cc2c1

1. 65.8
2. 79.4
3. 115
4. 73.2
5. 116
6. 99.2

###

Test system: HCC-2998 colon
Assay: NCI-60 one-dose screen, 48 h (100 = growth as untreated, 0 = no growth, -100 = all killed)
Details: 10 µM unless noted
This is part of a sample that, as a whole, favours compounds with a hit. Of some 83,000 tested, about 20% had one in any assay.
measurementLabel: growth (%)
One number for each entry, in %.

Examples with answers:
molecule	growth, %
NC(N)=N/N=C/c1ccc(Cl)cc1	86.8
CCCCCN(CCCCC)C(=O)C(CCC(=O)O)NC(=O)c1ccc(Cl)c(Cl)c1 (stereo unspecified)	113
Cc1nc(N)nc2c1CCC(Nc1ccccc1)S2 (stereo unspecified)	104
COc1cc(/C=C\c2cc(/C=C\c3ccc(O)c(OC)c3)n(C(=O)Nc3ccc(C(F)(F)F)cc3)n2)ccc1O	103
CCOC(OCC)c1cnc2nc(NC(C)=O)[nH]c(=O)c2n1	107

From here, focus on the item given below.
Noted for CC(C)(C)[Si](C)(C)OC1[C@@H](CNC(N)=O)O[C@@H](n2cnc3c(NC(=O)Nc4ccccc4)ncnc32)[C@H]1O[Si](C)(C)C(C)(C)C (stereo partly specified) : its growth reads 19

###

System: NCI-H460 lung
Experiment: NCI-60 one-dose screen, 48 h (100 = growth as untreated, 0 = no growth, -100 = all killed)
Details: 10 µM unless noted
This is part of a sample that, as a whole, favours compounds with a hit. Of some 83,000 tested, about 20% had one in any assay.
measurementLabel: growth (%)
One number for each entry, in %.

Worked cases, growth given:
compound	growth / %
COc1ccccc1/C=N\Nc1ccc([N+](=O)[O-])cn1	123
COc1ccc(-n2c(COc3ccc(F)cc3)n[nH]c2=S)cc1	110
Cn1c(-c2ccccc2)cc(=O)n1-c1ccccc1	117
O=C1Nc2ccc(Br)cc2/C1=N/c1nc(-c2ccccc2)cs1	90.9
O=C(Nc1ccc([N+](=O)[O-])cc1)c1cc2ccccc2cc1O	-33

Provide growth values for the following items, in order.
1. CCCC(CCC)(C(N)=O)C(=O)O
2. COc1cccc(-c2nc3sccn3c2-c2ccnc(NCCN3CCCNS3(=O)=O)n2)c1
3. CSc1nc(N)c2[nH]c(-c3cc4ccccc4[nH]c3=O)nc2n1
4. CC(=O)Cc1ccccn1
5. COc1cc(C2CC(c3ccc(Cl)cc3)=NN2C(C)=O)ccc1Oc1ccnc2cc(Cl)ccc12 (stereo unspecified)
6. CC(=O)c1ccc(N2C(=O)c3ccc(Oc4ccccc4)cc3C2=O)cc1

1. 115
2. 68.8
3. 60.4
4. 105
5. 30.8
6. 105

###

System: SK-OV-3 ovarian
Assay: NCI-60 one-dose screen, 48 h
Conditions: 10 µM unless noted
The panel holds about 83,000 compounds, 20% with a hit somewhere; the sample as a whole holds those more often. Active and inactive are the calls of the source. The calls were made as follows: active = growth percent below 10; inactive = the rest.
Select the matching outcome among active, inactive

Consider the following illustrative entries.
compound	classification
Cn1c(=O)c2c(nc(N/N=C/c3ccccc3Cl)n2C)n(C)c1=O	inactive
CC1=CCC2C1CC=C(C)C(CC[C@H]1[C@@](C)(O)CCC3OC(C)(C)[C@H](OC(=O)c4ccccc4)CC[C@@]31C)C2(C)C (stereo partly specified)	inactive
CC(C)CCSc1nc(-c2ccc(F)cc2)c(C#N)c(N2CCN(C)CC2)n1	inactive
O=C1NN(C(=O)c2ccccc2)C(c2ccc(Cl)c(Cl)c2)=C/C1=C\c1ccccc1[N+](=O)[O-]	inactive
CN1C2CCC1/C(=C\c1ccc(Cl)cc1)C(=O)/C2=C/c1ccc(Cl)cc1	inactive

Hi team, can someone confirm the assay call for N#CCCn1cnc2c(N)ncnc21 ? inactive

What outcome does the record of this test show for CCOC(OCC)c1cnc2nc(NC(C)=O)[nH]c(=O)c2n1 ? inactive

###

Test system: PC-3 prostate
Test: NCI-60 one-dose screen, 48 h (100 = growth as untreated, 0 = no growth, -100 = all killed)
Settings: 10 µM unless noted
The panel holds about 83,000 compounds, 20% with a hit somewhere; the sample as a whole holds those more often.
Response field label takes rule met when growth is strictly below 80% and rule not met in all other cases.

compound	systemName	classification
N#CCCn1cnc2c(N)ncnc21	PC-3 prostate	rule not met
N/C(=C\C(=O)n1nc(-c2ccccc2)cc1N)c1ccccc1	PC-3 prostate	rule met
COc1cc(C2CC(c3ccc(Cl)cc3)=NN2C(C)=O)ccc1Oc1nc2c(c(=O)n(C)c(=O)n2C)n1C (configuration not stated)	PC-3 prostate	rule met
CSC1=N/C(=C\c2cccc(OCc3ccc(Cl)cc3)c2)C(=O)N1	PC-3 prostate	rule met
CCN1C(=O)N(CC)C2C1N=C(SC)N2/N=C/C=C/c1ccccc1OC (configuration not stated)	PC-3 prostate	rule met
C=C1C(=O)O[C@H]2[C@H]1CC/C(COC(=O)NCc1c[nH]c3ccc(OC)cc13)=C\CC[C@@]1(C)O[C@@H]21	PC-3 prostate	rule met

Hello, is growth of the following compound strictly smaller than 80%? Cc1cc(N)cc(C)c1-c1c(Br)cc(N)cc1Br rule met

growth under 80%? Item: c1ccc(-c2ccc(-c3ccccc3)[nH]2)cc1 rule not met

Threshold test, growth < 80%: COC1(OC)C2(Cl)CCC1(Cl)C(Cl)=C2Cl rule not met

Determine whether this compound shows growth lower than 80% (ties excluded): CCOC(=O)C(CCCCC(NC(C)=O)(C(=O)OCC)C(=O)OCC)(NC(C)=O)C(=O)OCC rule not met

Lab log: compare recorded growth with 80%; is it strictly lower for CCCCCCCCCCCCCCCCCC(=O)OCCCCCCCCCCCCC ? rule not met

Determine if COc1cc(C2CC(c3cccc(Nc4ccnc5cc(Cl)ccc45)c3)=NN2C=O)cc(OC)c1OC (configuration not stated) shows growth strictly lower than 80%. rule met

Field: below-cutoff. Rule: recorded growth strictly less than 80%. Subject: CN(C)CCCN1c2ccccc2CCc2ccccc21 rule not met

###

Test system: SF-539 CNS
Experiment: NCI-60 one-dose screen, 48 h
Conditions: 10 µM unless noted
About 83,000 compounds went through this panel and 20% of them were active in at least one assay; those are over-represented in the sample as a whole. The source made the active and inactive calls. How the source made its calls: active means growth percent below 10; inactive means the rest.
Return exactly one item of active, inactive

molecule	classification
COc1ccc(C2c3cccn3-c3ccccc3N2C(C)=O)cc1 (centres undefined)	inactive
CNCCCn1c2c(c3ccc(Cl)cc3c1=O)C(=O)c1cc(OC)cnc1-2	inactive
COc1cnc2c(c1)C(=O)c1c-2n(CCCN2CCN(C)CC2)c(=O)c2cc(Cl)ccc12	inactive
CC(C)=CC[C@@H]1CC2(CC=C(C)C)C(=O)C(OC3(C(=O)c4ccccc4)C(=O)C4(CC=C(C)C)C[C@@H](CC=C(C)C)C(C)(C)C(CC=C(C)C)(C4=O)C3=O)(C(=O)c3ccccc3)C(=O)C(CC=C(C)C)(C2=O)C1(C)C (some centres undefined)	active

Which result was noted for this molecule in the test: CC(=O)Cc1ccccn1 inactive

Which outcome did this test record for the molecule Clc1ccc(C2=NN[C@H](c3cn(-c4ccccc4)nc3-c3ccccc3)C2)cc1 ? inactive

Kindly provide the recorded test outcome for the following molecule: CCN(CC)Cc1cc(Nc2ccnc3ccc(OC)cc23)ccc1O inactive

Just curious, what result did c1cn2cc(-c3ccc4ncn(C5CCCCC5)c4c3)nc(-c3ccc4c(c3)ncn4C3CCCCC3)c2n1 get here? active

Identify the outcome logged in this assay for the molecule shown: CC(NC(=O)c1ccccc1)C(=O)Nc1ccccc1 (centres undefined) inactive
